Source listed as patent US8883963B2.

Target: Human GLP-1 receptor (Homo sapiens, UniProt P43220)
Construct: The full-length cDNA was cloned in pcDNA3.1(+); expressed in transfected cells
Sequence (P43220 24-463): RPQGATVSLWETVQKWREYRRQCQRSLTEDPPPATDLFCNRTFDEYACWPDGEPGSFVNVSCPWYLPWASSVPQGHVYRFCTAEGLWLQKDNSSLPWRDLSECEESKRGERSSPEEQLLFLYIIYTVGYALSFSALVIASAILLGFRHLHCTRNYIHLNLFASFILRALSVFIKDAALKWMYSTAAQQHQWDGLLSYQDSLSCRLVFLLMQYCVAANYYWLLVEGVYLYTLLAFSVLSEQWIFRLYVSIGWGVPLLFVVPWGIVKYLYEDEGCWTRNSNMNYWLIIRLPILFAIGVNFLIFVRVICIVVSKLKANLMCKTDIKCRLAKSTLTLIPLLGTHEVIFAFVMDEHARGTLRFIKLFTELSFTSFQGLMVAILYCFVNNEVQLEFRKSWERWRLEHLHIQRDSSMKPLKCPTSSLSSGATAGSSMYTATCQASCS
Experiment: In vitro Human GLP-1 R agonist activity (cyclic AMP determination) in CHO/human GLP1R cells
Type: cell-based
Conditions: 10 μM test compound
readout name: Human GLP-1 R activity (cAMP release), % activity with respect to control (%)
Enter your answer as a number in %; do not include the unit.

(Q) # query: Human GLP-1 R activity (cAMP release), % activity with respect to control of entry CCc1cc(OC)ccc1-c1ccc(CC(NC(=O)[C@H](CC(=O)O)NC(=O)[C@H](CO)NC(=O)[C@@H](NC(=O)C(C)(Cc2ccccc2F)NC(=O)[C@@H](NC(=O)CNC(=O)C(CCC#N)NC(=O)C(C)(C)NC(=O)[C@@H](N)Cc2c[nH]cn2)[C@H](C)O)[C@H](C)O)C(=S)NC(CCCc2ccccc2)C(N)=O)cc1 (single isomer, unassigned) [compound 166]
(A) 99

(Q) # query: Human GLP-1 R activity (cAMP release), % activity with respect to control of entry CCc1cc(OC)ccc1-c1ccc(CC(NC(=O)[C@H](CC(=O)O)NC(=O)[C@H](CO)NC(=O)[C@@H](NC(=O)[C@H](Cc2ccccc2)NC(=O)[C@@H](NC(=O)CNC(=O)[C@H](CCC(N)=O)NC(=O)C(C)(C)NC(=O)[C@@H](N)Cc2c[nH]cn2)[C@@H](C)O)[C@@H](C)O)C(=O)NC(CCCc2cccc(Cl)c2)C(N)=O)cc1 (single isomer, unassigned) [compound 19]
(A) 99
